Each recorded value in this set is attributed to patent US12310975B2.

Target: UniProtKB P41182
Assay: Immunofluorescence high content imaging of BCL6 degradation in T47D cells
Type: cell-based
Settings: T47D cells
We begin with a simple list: items and their reported Dmax.

CNC(=O)COc1cc2cc(Nc3nc(N4CCC(CN5CCC6(CC5)CN(c5cccc(C(=O)NC7CCC(=O)NC7=O)c5F)C6)CC4)ncc3Cl)ccc2n(C(C)C)c1=O (centres unmarked) | ≥ 70%
CNC(=O)COc1cc2cc(Nc3nc(N4CCC(CN5CCC6(CC5)CN(c5cccc(C(=O)NC7CCC(=O)NC7=O)c5OC)C6)CC4)ncc3Cl)ccc2n(C(C)C)c1=O (centres unmarked) | < 50%
CNC(=O)COc1cc2cc(Nc3nc(N4CCC(CN5CCC6(CC5)CN(c5cccc7c5CN(C5CCC(=O)NC5=O)C7=O)C6)CC4)ncc3Cl)ccc2n(C(C)C)c1=O (centres unmarked) | ≥ 70%
CNC(=O)COc1cc2cc(Nc3nc(N4CCN(CC5CCN(c6ccc7c(c6)CN(C6CCC(=O)NC6=O)C7=O)CC5)CC4)ncc3Cl)ccc2n(C(C)C)c1=O (centres unmarked) | 50 to 70%

--- query ---
Suppose we examine the molecule CNC(=O)COc1cc2cc(Nc3nc(N4CCN(CC5CCN(c6cc7c(cc6OC)C(=O)N(C6CCC(=O)NC6=O)C7=O)CC5)CC4)ncc3Cl)ccc2n(C(C)C)c1=O (centres unmarked) ; what Dmax value has been reported? ≥ 70%
